# assayed_system: Retinoic acid receptor alpha (Mus musculus)
# assay_explanation: Inhibition of [3H]-retinoic acid binding to murine retinoic acid receptor RAR alpha
# Design: concentration or dose not given beside the values
# experimental_conditions: concentration not given here
As shown below, each of these compounds has a reported inhibition value.
State just the number; it will be interpreted in %.

See these solved cases before continuing.
>>> print(df.to_string())
                               smiles_input                            assayed_system  quantity_measured  recorded_value
0  CC(/C=C/C=C(\C)C(=O)Nc1c(C)cc(C(C)(C)C)cc1C(C)(C)C)=C\C(=O)O  Retinoic acid receptor alpha (Mus musculus)         inhibition              15
1  CC(/C=C/C=C(\C)COc1cc(C)cc(C)c1C)=C\C(=O)O  Retinoic acid receptor alpha (Mus musculus)         inhibition              30
2   CC(/C=C/C=C(\C)COc1ccc(F)cc1C)=C\C(=O)O  Retinoic acid receptor alpha (Mus musculus)         inhibition               0

Identify measured inhibition obtained with Retinoic acid receptor alpha (Mus musculus) for CC(/C=C/C=C(\C)COc1ccc(C(C)(C)C)cc1C(C)(C)C)=C\C(=O)O .
5

Identify measured inhibition obtained with Retinoic acid receptor alpha (Mus musculus) for CC(/C=C/C=C(\C)C(=O)Nc1ccc(C(C)(C)C)cc1C(C)(C)C)=C\C(=O)O .
0

Identify measured inhibition obtained with Retinoic acid receptor alpha (Mus musculus) for CC(/C=C/C=C(\C)COc1c(C)cc(C)cc1C)=C\C(=O)O .
30

Identify measured inhibition obtained with Retinoic acid receptor alpha (Mus musculus) for COc1ccc(OC/C(C)=C/C=C/C(C)=C/C(=O)O)c(C(C)(C)C)c1 .
25

Where do the numbers come from? From ChEMBL document CHEMBL1145036.
